# Test protocol: Partition coefficient is determined in octanol/buffer solution
# Type: physicochemical
# Condition set: octanol/buffer; read-out: logP
Label satisfied when logP < 5; otherwise not satisfied.

O=C(Nc1ccc(Br)cc1)c1cc(Br)ccc1O :: not satisfied
O=C(Nc1ccc(Br)cc1)c1ccccc1O :: satisfied
CCCc1ccc(O)c(C(=O)Nc2ccc(Br)cc2)c1 :: not satisfied
CCC(=O)c1ccc(O)c(C(=O)Nc2ccc(Br)cc2)c1 :: satisfied
Cc1ccc(O)c(C(=O)Nc2ccc(Br)cc2)c1 :: satisfied
O=C(Nc1ccc(Br)cc1)c1cc([N+](=O)[O-])ccc1O :: satisfied

Next up:
hey, is logP for CCCCCC(=O)c1ccc(O)c(C(=O)Nc2ccc(Br)cc2)c1 lower than 5 or not? not satisfied
